In this section, each of the variants is paired with its reported protein stability index.
B1: YPEL3 (parent)
chain: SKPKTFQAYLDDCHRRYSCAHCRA

- Variants of: B1
- Protocol Notes: protein stability index of a GFP-peptide fusion (GPS, HEK-293T) (PSI 1-6); higher = more stable;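 also: lentivirally expressed fusions sorted by FACS into six bins by GFP to DsRed ratio, PSI derived from sequencing read proportions per bin multiplied by bin number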
- Test Settings: c terminus: a fixed tail appended
Outcome Measure: protein stability index

Residue Sequence	Numeric Result
SKPKTFQAYLDDCHRRYSCAFCRA	1.52
SKPKTFQAYLDDCHRRYICAHCRA	2.37
SKPGTFQAYLDDCHRRYSCAHCRA	2.71
SKPKTFQAYLDDCHRGYSCAHCRA	1.33
SPPKTFQAYLDDCHRRYSCAHCRA	1.95
SKPKTFQAYLDDCHRRYSCAHHRA	1.82
SKPKTFQAYLWDCHRRYSCAHCRA	1.5
SKCKTFQAYLDDCHRRYSCAHCRA	2.6
SKPKTFQAYLADCHRRYSCAHCRA	1.89
SKPKTFQAVLDDCHRRYSCAHCRA	2.41
SKPKTFQAYLDDCHRRYSIAHCRA	2.33
